# Isometric tension, relaxation (Mean ± SEM) per entry
- System: rat aortic ring segments
- protocol.summary: Isometric tension: vasodilation of rat aortic ring segments preconstricted with phenylephrine
- Format: cell-based
- protocol.conditions: Log [M] −4.5
Express your answer in %, writing the number without its unit.

>  <compound>
O=[N+]([O-])OCCCCO [HBN, 1-Hydroxy-4-butyl nitrate]

>  <target.of.assay>
rat aortic ring segments

>  <observed.value>
55.15

$$$$
>  <compound>
CCCCC(=O)N(Cc1ccc(-c2ccccc2-c2nnn[nH]2)cc1)C(C(=O)N(C)CCCCO[N+](=O)[O-])C(C)C (stereo not shown)

>  <target.of.assay>
rat aortic ring segments

>  <observed.value>
13.69

$$$$
>  <compound>
CCCCC(=O)N(Cc1ccc(-c2ccccc2-c2nnn[nH]2)cc1)[C@H](C(=O)O)C(C)C

>  <target.of.assay>
rat aortic ring segments

>  <observed.value>
4.94

$$$$

Turning to the following compound.
Problem: Report Isometric tension, relaxation (Mean ± SEM) from rat aortic ring segments testing of `CNCCCCO[N+](=O)[O-].O=[N+]([O-])O`
Solution: 50.81
